# targetOrTestSystem: Sphingosine 1-phosphate receptor 3 (Homo sapiens, UniProt Q99500)
# Sequence (Q99500 whole entry): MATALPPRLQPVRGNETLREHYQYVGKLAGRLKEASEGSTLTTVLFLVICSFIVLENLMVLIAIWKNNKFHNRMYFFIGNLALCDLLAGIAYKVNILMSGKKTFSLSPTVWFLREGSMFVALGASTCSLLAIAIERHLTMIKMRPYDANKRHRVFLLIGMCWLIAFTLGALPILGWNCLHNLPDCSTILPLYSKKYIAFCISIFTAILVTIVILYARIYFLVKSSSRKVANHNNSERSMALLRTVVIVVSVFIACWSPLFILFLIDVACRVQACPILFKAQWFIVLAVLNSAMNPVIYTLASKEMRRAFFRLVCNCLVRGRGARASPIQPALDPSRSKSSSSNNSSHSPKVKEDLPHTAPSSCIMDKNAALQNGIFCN
# procedureSummary: S1P3 receptor activation, EC50 – cell-based, NFAT-BLA reporter, dose response (AID 439)
# cond: inactive by the depositor's call
resultType: log10 EC50 (log10 of the value in µM)
Answers are given as log10 of EC50 in µM.

>>> recordedvalue("COc1ccc(Nc2nc(Nc3ccc(OC)cc3)nc(-n3[nH]c(=O)c(C)c3C)n2)cc1")
1.17
>>> recordedvalue("CC(C)OCCCNC(=O)c1c(N)n(Cc2cccs2)c2nc3ccccc3nc12")
1.35
>>> recordedvalue("CCSc1nc(N2CCOCC2)c2c(c1C#N)CCCC2")
1.16
>>> recordedvalue("c1ccc(C(Cc2nc(-c3ccccn3)no2)c2ccccc2)cc1")
1.32
>>> recordedvalue("C/C(Cl)=C/Cn1c(N2CCCC2)nc2c1c(=O)n(C)c(=O)n2C")
1.59
>>> recordedvalue("Nc1c(C(=O)NCCN2CCOCC2)c2nc3ccccc3nc2n1CCc1ccccc1")
2.25
>>> recordedvalue("COCCNc1nc(-n2nc(C)cc2C)nc2sc3c(c12)CCCC3")
1.12
>>> recordedvalue("Cc1cccc2cc3c(NC(=O)c4ccccn4)nn(C)c3nc12")
2.10
>>> recordedvalue("COc1ccc(Cn2c(N)c(C(=O)NCc3ccco3)c3nc4ccccc4nc32)cc1")
1.30

Summary for this molecule, N=c1c(C(=O)NCc2ccco2)cc2c(=O)n3ccccc3nc2n1Cc1ccc(Cl)cc1 : log10 EC50 is 1.81

---

# targetOrTestSystem: UniProtKB Q99500
# procedureSummary: S1P3 receptor activation, EC50 – cell-based, NFAT-BLA reporter, dose response (AID 439)
pEC50: −log10 of the molar value.
Decision: pEC50 compared against 5; not below it gives satisfied, below it gives not satisfied.

>>> answerlabel("Cc1cc(C(=O)N(C2CCCCC2)C2CCCCC2)no1")
"not satisfied"

Lookup: Form field: pEC50 at least 5? Entry: CC(=O)Oc1ccc2cc(-c3nc4ccccc4n3C)c(=O)oc2c1
Found: satisfied

Lookup: // inclusive: pEC50 at least 5? input: Cc1nc(-c2ccccc2)cc(N2CCCC2)n1
Found: not satisfied

Lookup: Item Cc1cc(C)n(-c2nc(NCCCO)c3c4c(sc3n2)CCCC4)n1 with pEC50 of 5 or above?
Found: satisfied

Lookup: Confirm if pEC50 reported for the compound Cc1ccc(-n2c(=O)[nH]cc(C(=O)Nc3ccc4c(c3)OCCO4)c2=O)cc1C is 5 or above.
Found: not satisfied

Lookup: Check the entry CCCSc1nc(N2CCOCC2)c2c(c1C#N)CCCC2 : does pEC50 equal or exceed 5?
Found: satisfied

Lookup: Form field: pEC50 at least 5? Entry: CCOC(=O)N1CCN(C(=O)c2nn(-c3cc(OC)cc(OC)c3)c(=O)c3ccccc23)CC1
Found: not satisfied

Lookup: Item CCOC(=O)C1C(=N)OC2=C(C(=O)CCC2)C1c1ccccc1OCC (stereo unspecified) with pEC50 of 5 or above?
Found: not satisfied

Lookup: API: above_or_equal(metric=pEC50, cutoff=5) for item CCCCn1c(NC(=O)c2ccc(F)cc2)c(C#N)c2nc3ccccc3nc21
Found: not satisfied

Lookup: Determine whether measured pEC50 meets or exceeds 5 for Cc1cc(C)nc(-n2nc(C)c(Sc3ccc(F)cc3)c2N)n1
Found: satisfied

Lookup: Does the compound CCCN(CCC)CCCNC(=O)CC1Nc2ccccc2NC1=O (stereo unspecified) have recorded pEC50 that is 5 or more?
Found: not satisfied

Lookup: Answer whether pEC50 of Nc1c(C(=O)NCc2ccco2)c2nc3ccccc3nc2n1CCN1CCCCC1 is greater than or equal to 5.
Found: not satisfied

Lookup: State whether the measured pEC50 reaches 5, counting equality as reaching it, for C=CCn1c(=O)c(C#N)cc2c(=O)n3ccccc3nc21
Found: not satisfied

Lookup: State whether the measured pEC50 reaches 5, counting equality as reaching it, for Cc1ccc2nc3c(cc(C#N)c(=O)n3-c3nccs3)c(=O)n2c1
Found: not satisfied

Lookup: hey, is pEC50 for this one >= 5? Cc1cc(C)n(-c2nc(NCCO)c3c4c(sc3n2)CCCC4)n1
Found: satisfied

Lookup: Quick check: does CC(C)n1c(=N)c(C(=O)NCCc2ccccc2)cc2c(=O)n3ccccc3nc21 have pEC50 greater than or equal to 5?
Found: not satisfied

Lookup: # check: pEC50 of Cc1cc(NC(=O)NC(=O)c2cccc(OC(F)(F)C(F)F)c2)[nH]n1 is greater than or equal to 5
Found: not satisfied

Lookup: Is reported pEC50 greater than or equal to 5 here: c1ccc(-c2nnc(N3CCOCC3)nc2-c2ccccc2)cc1
Found: satisfied

Origin of measurements: BindingDB's records for doi:10.7270/Q2PZ576Z
